These data points were gathered from patent US5952321A.

Target: UniProt:P08246
Sequence (P08246 30-267): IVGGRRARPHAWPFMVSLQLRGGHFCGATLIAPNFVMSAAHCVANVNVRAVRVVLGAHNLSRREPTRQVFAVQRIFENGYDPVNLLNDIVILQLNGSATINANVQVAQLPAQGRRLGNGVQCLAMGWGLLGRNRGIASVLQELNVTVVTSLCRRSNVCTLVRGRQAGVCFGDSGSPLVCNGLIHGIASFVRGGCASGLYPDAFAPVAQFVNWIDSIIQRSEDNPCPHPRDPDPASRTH
Assay: Inhibition of human polymorphonuclear leukocyte elastase via hydrolysis of Boc-AAPAN or Boc-AAPVN
Assay type: biochemical
Conditions: pH 7.5, Table I; second order rate constant for inactivation of the enzyme; read-out: Kobs /[I]
observation_type: kinact/KI (M⁻¹ s⁻¹)

Illustrative cases are given below, each with its answer.
CCC[C@@H](NC(=O)N1C(=O)C(CC)(CC)[C@@H]1Oc1ccc(C(C)NCCOC)cc1)c1ccc(C)cc1 (stereo partly shown) ... 680000
CCC[C@@H](NC(=O)N1C(=O)C(CC)(CC)[C@@H]1Oc1ccc(CNC(=O)NCc2ccccc2)cc1)c1ccc(C)cc1 ... 1.6e+06

[P] CCC[C@@H](NC(=O)N1C(=O)C(CC)(CC)[C@@H]1Oc1ccc(CNC(=O)Cc2ccncc2)cc1)c1ccc(C)cc1
[Q] CCC[C@@H](NC(=O)N1C(=O)C(CC)(CC)[C@@H]1Oc1ccc(CN(CCOC)CCOC)cc1)c1ccc(C)cc1
Between item P and item Q , which reported kinact/KI is smaller? Identify your selection by its label. Q
(Q: 820000 M⁻¹ s⁻¹, P: 1.7e+06 M⁻¹ s⁻¹)

[I] CCC[C@@H](NC(=O)N1C(=O)C(CC)(CC)[C@@H]1Oc1ccc(C(COC)N(C)C(C)C)cc1)c1ccc(C)cc1 (stereo partly shown)
[II] CCC[C@@H](NC(=O)N1C(=O)C(CC)(CC)[C@@H]1Oc1ccc(C(COC)N(C)C)cc1)c1ccc(C)cc1 (mixture of isomers)
Of the two listed items, which has the higher kinact/KI? First: I Second: II Identify your selection by its label. II

[A] CCC[C@@H](NC(=O)N1C(=O)C(CC)(CC)[C@@H]1Oc1ccc(CN(C)CCSC)cc1)c1ccc(C)cc1
[B] CCC[C@@H](NC(=O)N1C(=O)C(CC)(CC)[C@@H]1Oc1ccc(CN(C)CCSCC)cc1)c1ccc(C)cc1
Of the two listed items, which has the higher kinact/KI? First: A Second: B Identify your selection by its label. B
(B: 1.05e+06 M⁻¹ s⁻¹, A: 675000 M⁻¹ s⁻¹)

* * *

Target: Human Polymorphonuclear Leukocyte Elastase (Homo sapiens, UniProt P08246)
Sequence (P08246 30-267): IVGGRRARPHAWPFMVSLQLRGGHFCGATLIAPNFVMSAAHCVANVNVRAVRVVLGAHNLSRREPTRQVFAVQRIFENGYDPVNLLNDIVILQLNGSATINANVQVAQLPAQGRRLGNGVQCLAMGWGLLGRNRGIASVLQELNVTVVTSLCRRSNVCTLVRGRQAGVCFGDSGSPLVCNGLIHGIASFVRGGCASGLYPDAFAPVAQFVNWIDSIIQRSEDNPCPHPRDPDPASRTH
Assay: Inhibition of human polymorphonuclear leukocyte elastase via hydrolysis of Boc-AAPAN or Boc-AAPVN
Type: biochemical
Settings: pH 7.5, Table I; second order rate constant for inactivation of the enzyme; read-out: Kobs /[I]
observation_type: kinact/KI (M⁻¹ s⁻¹)

Illustrative cases are given below, each with its answer.
CCC[C@@H](NC(=O)N1C(=O)C(CC)(CC)[C@@H]1Oc1ccc(CN(C)CC2CCCCO2)cc1)c1ccc(C)cc1 (stereo partly drawn) ... 900000
CCC[C@@H](NC(=O)N1C(=O)C(CC)(CC)[C@@H]1Oc1ccc(CNC(=O)NC(C)C)cc1)c1ccc(C)cc1 ... 1.1e+06
CCC[C@@H](NC(=O)N1C(=O)C(CC)(CC)[C@@H]1Oc1ccc(CN(C)CCOC)cc1)c1ccc(C)cc1 ... 440000
CCC[C@@H](NC(=O)N1C(=O)C(CC)(CC)[C@@H]1Oc1ccc(CN(C)CCOC(=O)N(CC)CC)cc1)c1ccc(C)cc1 ... 1.23e+06

[I] CCC[C@@H](NC(=O)N1C(=O)C(CC)(CC)[C@@H]1Oc1ccc(CN2CCC(O)CC2)cc1)c1ccc(C)cc1
[II] CCC[C@@H](NC(=O)N1C(=O)C(CC)(CC)[C@@H]1Oc1ccc(Cn2ccnc2CC)cc1)c1ccc(C)cc1
Between item I and item II , which reported kinact/KI is smaller? Identify your selection by its label. I
(I: 1.15e+06 M⁻¹ s⁻¹, II: 2.25e+06 M⁻¹ s⁻¹)
